Target Desc: GPIIb/IIIa (Homo sapiens, UniProt P05106+P08514)
Sequence (P08514 32-887 limits assumed): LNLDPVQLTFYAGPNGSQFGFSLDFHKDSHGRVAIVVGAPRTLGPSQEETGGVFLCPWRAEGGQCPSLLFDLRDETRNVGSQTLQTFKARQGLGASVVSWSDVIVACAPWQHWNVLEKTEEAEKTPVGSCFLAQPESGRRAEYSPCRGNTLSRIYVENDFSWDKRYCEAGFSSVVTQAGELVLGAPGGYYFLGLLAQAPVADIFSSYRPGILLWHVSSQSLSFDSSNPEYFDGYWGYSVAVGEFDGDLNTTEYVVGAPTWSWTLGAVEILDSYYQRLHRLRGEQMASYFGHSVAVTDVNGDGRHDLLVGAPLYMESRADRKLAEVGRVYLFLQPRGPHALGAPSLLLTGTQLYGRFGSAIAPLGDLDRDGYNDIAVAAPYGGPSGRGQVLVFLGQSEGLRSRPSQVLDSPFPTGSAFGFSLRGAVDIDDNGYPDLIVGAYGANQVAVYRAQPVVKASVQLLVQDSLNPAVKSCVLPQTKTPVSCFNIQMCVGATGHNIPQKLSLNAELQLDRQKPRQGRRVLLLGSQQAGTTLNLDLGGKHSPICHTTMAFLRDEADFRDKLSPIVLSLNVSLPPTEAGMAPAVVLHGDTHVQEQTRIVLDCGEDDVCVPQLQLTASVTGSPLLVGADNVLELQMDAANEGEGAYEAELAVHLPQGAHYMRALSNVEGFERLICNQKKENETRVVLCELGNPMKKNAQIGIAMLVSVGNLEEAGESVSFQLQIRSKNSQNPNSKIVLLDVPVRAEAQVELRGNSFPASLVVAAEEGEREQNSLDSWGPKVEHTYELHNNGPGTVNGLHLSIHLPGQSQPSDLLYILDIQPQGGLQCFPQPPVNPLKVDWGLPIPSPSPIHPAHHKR
Sequence (P05106 27-788): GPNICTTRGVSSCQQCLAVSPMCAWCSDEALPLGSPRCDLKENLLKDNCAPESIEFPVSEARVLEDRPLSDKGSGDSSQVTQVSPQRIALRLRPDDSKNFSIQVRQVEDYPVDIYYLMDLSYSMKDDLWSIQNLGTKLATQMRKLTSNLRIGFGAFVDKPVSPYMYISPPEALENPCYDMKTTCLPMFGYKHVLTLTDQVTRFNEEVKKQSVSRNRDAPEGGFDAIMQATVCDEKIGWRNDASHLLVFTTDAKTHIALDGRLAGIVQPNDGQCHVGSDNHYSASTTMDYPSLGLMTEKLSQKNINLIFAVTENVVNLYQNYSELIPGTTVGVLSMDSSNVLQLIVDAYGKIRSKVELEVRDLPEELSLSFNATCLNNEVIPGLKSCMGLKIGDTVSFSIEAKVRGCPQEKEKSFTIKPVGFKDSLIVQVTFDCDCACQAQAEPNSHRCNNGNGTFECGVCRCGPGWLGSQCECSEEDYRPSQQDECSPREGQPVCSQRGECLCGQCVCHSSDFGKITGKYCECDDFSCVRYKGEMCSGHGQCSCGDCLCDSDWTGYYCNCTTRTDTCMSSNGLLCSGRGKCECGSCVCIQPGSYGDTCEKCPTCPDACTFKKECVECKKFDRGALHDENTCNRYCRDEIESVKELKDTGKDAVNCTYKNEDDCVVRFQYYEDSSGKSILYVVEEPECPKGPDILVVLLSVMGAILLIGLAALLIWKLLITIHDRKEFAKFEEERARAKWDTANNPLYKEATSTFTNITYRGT
Assay Summary: In vitro solid phase purified glycoprotein IIb/IIIa binding assay (biotinylated fibrinogen)
Run Parameters: Table I
Recorded pIC50, one value per entry.
Would you please state pIC50, meaning minus log10 of the concentration in mol/L, as a bare number?

Below: 3 compounds and their reported pIC50.
Entry CC(C)(C)OC(=O)N[C@H](CCCCN)C(=O)N1CCCC(C(=O)NCCC(=O)O)C1 (stereo partly drawn) [Compound 3, Nα-Boc-D-Lys-Nip-γ-Ala--OH] , pIC50 reported as 7.68

Value of measured pIC50 for the entry NCCCC[C@@H](N)C(=O)N1CCCC(C(=O)NCCC(=O)O)C1 (stereo partly drawn) [Compound 10, H-D-Lys-Nip-β-Ala-OH] : 6.12

compound NCCCCCC(=O)N1CCCC(C(=O)NCCC(=O)O)C1 (stereo not drawn) [Compound 5, N-(Nε- nocaroyl)-Nip-β-Ala-OH] , pIC50 observed: 7.89

Continuing:
For record CC(=O)N[C@@H](CCCCN)C(=O)N1CCCC(C(=O)NCCC(=O)O)C1 (stereo partly drawn) [Compound 7, Nα-Ac-L-Lys-Nip-β-Ala-OH] the listed pIC50 is 7.13

Lab note: CC(C)(C)OC(=O)N[C@@H](CCCCN)C(=O)N1CCCC(C(=O)NCCC(=O)O)C1 (stereo partly drawn) [Compound 2, Nα-Boc-L-Lys-Nip-γ-Ala--OH] gave pIC50 of 6.13

Sure, the documented pIC50 for CC(C)(C)OC(=O)N[C@@H](CCCCNC(=O)OCc1ccccc1)C(=O)N1CCCC(C(=O)NCCC(=O)OCc2ccccc2)C1 (stereo partly drawn) [Compound 1, Nα-Boc-L-Lys(Cbz)-Nip-Ala-OBn] is 4.70

FYI, the data here is from patent US5770575A.
